Consider the following compounds; for each one, report its CC50.
test system: SN12C; test: Growth inhibition of human SN12C cells incubated for 48 hrs by sulforhodamine B assay; assay type: functional; settings: read-out: LC50 (the source's name)
Give bare numbers, in µM.

Would you mind giving CC50 for every compound in the list below?
1. COc1cc2cc(Oc3ccc(NC(=O)Nc4ccc(Cl)c(C(F)(F)F)c4)cc3)c(C)nc2cc1OC
2. COc1cc2cc(Oc3ccc(NC(=O)Nc4cc(C(F)(F)F)cc(C(F)(F)F)c4)cc3)c(C)nc2cc1OC

Output:
26.8
32.5

###

Consider the following molecules; for each one, report its GI50.
test system: SF-539; assay: Growth inhibition of human SF539 cells incubated for 48 hrs by sulforhodamine B assay; format: functional; conditions: SF-539, 48 h
One number for each entry, in nM.

structure=COc1cc2cc(Oc3ccc(NC(=O)Nc4cc(C(F)(F)F)cc(C(F)(F)F)c4)cc3)c(C)nc2cc1OC recorded_measurement=1450
structure=COc1cc2cc(Oc3ccc(NC(=O)Nc4ccc(Cl)c(Cl)c4)cc3)c(C)nc2cc1OC recorded_measurement=5180

Would you mind giving GI50 for every molecule in the list below?
1. COc1cc2cc(Oc3ccc(NC(=O)Nc4cccc(C(F)(F)F)c4)cc3)c(C)nc2cc1OC
2. Cc1nc2cc(O)c(O)cc2cc1Oc1ccc(NC(=O)Nc2ccc(Cl)c(Cl)c2)cc1
3. COc1cc2cc(Oc3ccc(NC(=O)Nc4ccc(Cl)c(C(F)(F)F)c4)cc3)c(C)nc2cc1OC

Output:
1. 2480
2. 8860
3. 1960
